assay: method code SF, from DOI: 10.1021/jf00073a025
Rule: logP below 0.8 gives Met, anything at or above gives Not met.

# example entries with known answers
CNC(=O)O/N=C1/SC(C)OC1C (centres undefined)
Not met
CNC(=O)ON=C1SCSC1(C)C
Not met
CNC(=O)O/N=C1/COCS1
Met
CCCC1OCS/C1=N\OC(=O)NC (centres undefined)
Not met
CNC(=O)ON=C1COCCS1 (stereo in doubt)
Met
CNC(=O)O/N=C1\SCCSC1(C)C
Not met
CNC(=O)O/N=C1\SCSC1C (centres undefined)
Not met
CNC(=O)O/N=C1\SCOC1C(C)C (centres undefined)
Not met
CNC(=O)O/N=C1/CSCS1
Met
CNC(=O)ON=C1CSC(C)(C)S1
Not met

Lab note: confirm whether the reported logP for this compound is below 0.8, equality not counting. compound: `CNC(=O)ON=C1CSCCS1`
Met

Lab note: confirm whether the reported logP for this compound is below 0.8, equality not counting. compound: CNC(=O)O/N=C1\SCOC1CCOC (centres undefined)
Met

Lab note: confirm whether the reported logP for this compound is below 0.8, equality not counting. compound: CNC(=O)ON=C1SCOC1C (stereo in doubt)
Met
